Tested on: MS2 coat protein
Test: apparent KD of MS2 coat protein; higher = weaker reporter binding
Conditions: Eterna round: R107; input ligand: tryptophan 2.4 mM
Given measured apparent KD of MS2 coat protein, output class 1 if it is greater than or equal to 60 nM and class 0 if not.

# SEQUENCE, ASSIGNED CLASS
measured = [
    ("UAAUAAAUAAAUCCAAGGUGAAGGUCAGAUACCAGCCAGAUAACUGGCCCUUGGCAGCUGAAUAAACUUGAGGAACACCCAAGUA [TheoAS 28 #OpenEnded #MS2Late #AlternativeMS2]", "class 0"),
]

Confirm if apparent KD of MS2 coat protein reported for the sequence UGUUUCGCGGGCGAUACCAGCUUGAUCGUACUGGCCUGGUACAUGAGGAUCACCCAUGUAAGCCCUUGGCAGCGCGCGCGAGACG [#1 Exclusion - Theophylline B Attempt #3 (HarryS)] is 60 nM or above. class 0

Ok, now AAGACGGUCGGAAGGAGCGGUACAUGAGGAUCACCCAUGUACUUCUGGGCAUCCGUAGUGUGCCAGGUAGGUCGCCGAUUGCGGG [XArg-B12] class 0

Another sequence to look at: AUAACAUGAGGAUCACCCAUGUAACCUGAAGGAGCGGACGAAAGUCCAGGUAGGUCGCAGGACUCCUUCAACAUGGGAGAGGGAG [SSArg-A #27 NuPack the Brourd] class 1

Also, ACGAUAGGACCUGAGGAACACCCAGGUGAUACCAGCCUGGAAACAGGCCCUUGGCAGCACCAAUACUCCAAUAACCUAUCGAAUA [TheoAX 12 #MicroSwitchBubble #AlternativeMS2] please. class 1

Okay, and CUCUGAGUGAGCAAUCACUCAGAGGCGGAUACCAGCGAGGUCCAUCGCCCUUGGCAGCCGAACAUGAGGAUCACCCAUGUCGGUA [#1 Same State - Theophylline A Attempt #22 (HarryS)] ? class 0

Next sequence: AAAAUCCUACCUGAGGAUCACCCAGGUGAAGGAGCGCCCGAAAGGGCAGGUAGGUCGCACCUGAGGAUCACCCUGGUACCUAAAA [ArgAX 27 #DoubleMs2 #OpenEnded #AlternativeMS2] class 1

Then what about the sequence UACAUGAGGAUCACCCAUGUCGGCAGGGAAGGAGCGGCAAUAAAGCCAGGUAGGUCGCCCAUUAGUAUUUAUAAAUAAAUAUCCA [Same State - Arginine A] ? class 1

Quick one: AACGUAUACAGAAGGAGCGUGAAAUAAGUAAAUUAAUAAUAAACAUGAGGAUCACCCAUGUCACAGGUAGGUCGCUGUAUUCGUA [JR_ExcArginiB_Sub017] class 0

###

// reported apparent KD of MS2 coat protein for each item listed
Test system: MS2 coat protein
Assay: apparent KD of MS2 coat protein; designed switch direction (-1 OFF switch, 1 ON switch): 1; higher = weaker reporter binding
Details: Eterna round: R95; input ligand: microRNA oligo, concentration not stated
Report the figure in nM without appending any unit label.

# SEQUENCE, apparent KD of MS2 coat protein (nM)
measured = [
    ("GGUCCGGCCUGAGCUGGACCGAAGCAUGUACAUGAGGAUCACCCAUGUCAUGUACAGGCUUUUUGCUCGUCUUAUUG [JL-shm-2.13 JL Mod] (puzzle: Sensor for hsa-mir-208a)", 14.4),
    ("AUAAGUUCGAUGCUCGUCUCUCCGUACAAACAUGAGGAUCACCCAUGUGGCCGGGAAGUAGCCCGACCAGUAUGGCC [Tearbeorve] (puzzle: Sensor for hsa-mir-208a)", 27.1),
]

Next sequence, apparent KD of MS2 coat protein to be filled in.
Returns the measured apparent KD of MS2 coat protein for the input sequence. Input: AACCGACAUGAGGAUCACCCAUGUAAAUGCAGGGCAGGAUAUCAAUCGGGAGGCCGAAAAUGAGAAGGGCCUAAAA [Onedte] (puzzle: Same State 1) 250

###

System: K4 kissing-loop RNA reporter;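 further: bound reporter read as fluorescence of individual clusters on recovered sequencing chips by microscopy, with normalized cluster intensities fitted with a binding model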
Assay: apparent KD of K4 kissing-loop reporter; higher = weaker reporter binding
Conditions: Eterna round: R107; input ligand: FMN 200 uM
MEASURED QUANTITY: apparent KD of K4 kissing-loop reporter (nM)
Numeric only. Scale: nM

Recall the recorded apparent KD of K4 kissing-loop reporter for AGACUUCACCGAAGGAGCGACGUAGCCUAGUGAUGUUAGGCAAGAGAGAAAUCUCUUAUACGUCAGGUAGGUCGCGGUGAAGUCA [Omei KL Arginine B SS C v2] with K4 kissing-loop RNA reporter and state it. 197

Note, next up: UGACUGGACUGAAGGAGCGCUUAACUCCUAGUGAUGUUAGGAAAACGAGACAAAGUCUCGAAGCAGGUAGGUCGCAGUCUAGUCU 152

Then UAUUAAUUGUCAGGAUAUCGUAUUCGAGUGAUGUUCGUAUAUCGACGAUAGUCGAUAUUAUCUAUACGAGAAGGGACAUUAUUUA [JR_SSFMNB_Sub006] ? 418

###

Examples of sequences with documented apparent KD of MS2 coat protein follow.
System: MS2 coat protein
Assay: apparent KD of MS2 coat protein; designed switch direction (-1 OFF switch, 1 ON switch): -1; higher = weaker reporter binding
Conditions: Eterna round: R95; input ligand: FMN 200 uM
Respond numerically; units are nM and should not be typed.

Name the reported apparent KD of MS2 coat protein value associated with the sequence AAAUAACAAGCGAGAUCCUACAUGAGGAUCACCCAUGUGCUCGUCUUAUUAAGUACUAUCACGAAAGUGAUAGUACA [Mat - Sensor v3 - turn-off var 1 - Eli Mod - D66] (puzzle: Sensor v3, turn-off variant 1) 18.4

For GGGCUGUCAGGAUAUACAUGAGGAUCACCCAUGUCGAGCUAUGAUAGGGCAAGAGUAGGUAGAAGGGACGAGAG [JR_Exclu3_Sub043] (puzzle: Exclusion 3) then? 43.7

Same lookup for GGAAAGGUAGGAUAUACGAAAAAAAAGGGUAGAAAAAAAACACAUGAGGAUCACCCAUGUAGAAGGACCAAAAG [salish99_ex2_r3_036] (puzzle: Exclusion 2) , please. 44.8

# repeat for GUAUAACUACACGGGCUCAACAUGAGGAUCACCCAUGUCAUAUACGCAAGCUUUUUGCUUGUCUUAUCAGGCCGUGA [Ceatxe] (puzzle: Sensor v3, turn-off variant 1) 13.5

Could you do the same for UAAUACAAGCAAAGAUCCUACAUGAGGAUCACCCAUGUGUUCGUCUUAUAAAGUACUAUCACGAAAGUGAUAGUACA [Mat - Sensor v3 - turn-off var 1 - Eli Mod - D79] (puzzle: Sensor v3, turn-off variant 1) , please? 81.6

###

System: MS2 coat protein
Assay: apparent KD of MS2 coat protein; higher = weaker reporter binding
Conditions: Eterna round: R107; input ligand: theophylline 2 mM
Reported values of apparent KD of MS2 coat protein for individual entries
Dear colleague, please return just the value in µM, with no unit written.

# SEQUENCE, UNIT OF MEASURE, apparent KD of MS2 coat protein
measured = [
    ("UGAUGGUACGGAAGGAGCGUGUAAGAACAAGAACAUGAGGAUCACCCAUGUAUUAAUUUAACACAGGUAGGUCGCCGUGUUAUUG [11.H]", "µM", 0.0547),
]

Entry under review: GUUACCAUGUCGGCCGCCACUAACAAGGUUAUGGCAAGUCUACACGACAUGAGGAUCACCCAUGUUAGGACCGGGACCCAUACCC [theeternabot_exclusion_MS2_Trp_B_44] . Reported apparent KD of MS2 coat protein? 0.0162

Query AAUAAACAUGAGGAUCACCCAUGUAUGGAAGGAGCGGUAAAUAAACCAGGUAGGUCGCCAGUGUGAGGGUCAUCUAUGUAAUAAA [Exclusion - Arginine A (Freestyle 1)] next 0.0749

# repeat for CCCAGUCAUAGCAAAGCAAAUAUACUCGAAGGAGCGUCAUAGUAGGCAGGUAGGUCGCGAGACAUGAGGAUCACCCAUGUAGAGA [ooomullin] 0.0578

And what about the sequence ACAUGAGGAUCACCCAUGUAGCCUAGGGAAGGAGCGUCGUAAGAGACAGGUAGGUCGCCCGCAUGUGAGUCAUCCAUGACGAGGG [#18 Same State - Arginine A] ? 0.0236

Again, but for AUAACAUGAGGAUCACCCAUGUAACCUGAAGGAGCGGACGAAAGUCCAGGUAGGUCGCAGGACUCCUUCAACAUGGGAGAGGGAG [SSArg-A #27 NuPack the Brourd] 0.152

Here is the next sequence: UCUUCGUUGGCGUCACAAUUCAUGCAAUGCCGAGGACCGGUACGGCCGCCACUCGGACUAAUACAUGAGGAUCACCCAUGUCGUG [theeternabot_exclusion_MS2_Trp_A_5] 0.219

// query: AUCCCGUGAGCGGCCGCCACUGGAGGCUUUGCGCGACAUGAGGAUCACCCAUGUGUGCCCGGCGUUAGGACCGGGUUCGCGUGGA [#1 Same State - Tryptophan B Attempt #17 (HarryS)] 0.0651

And what about the sequence UACUUACAUGAGGAUCACCCAUGUGGCGAAGGAGCGGCAUGAGGGCCAGGUAGGUCGCGCCAACAUACAUACAUGAGGAUCUCCC [Same State Arginine A 4] ? 0.118

Again, but for AGGACGGUCGGAAGGAGCGGUACAUGAGGAUCACCCAUGUACUUCUGGGCAUCCGUAGAGUGCCAGGUAGGUCGCCGAUUGCGGG [XArg-B10] 0.0106

Also need AUUAACAUGAGGAUCACCCAUGUGGCCCACCGAGGACCGGUACGGCCGCCACUCGUCGGAAAGGCUAAAUUUAUGAAGUCCAAAA [theeternabot_sameState_MS2_Trp_A_40] , thanks. 0.017
